Cited source: paper PMC3108608

# target: mPGES-1 (Homo sapiens)
# Construct: microsomal preparations of IL-1β-stimulated A549 cells, a rich source of mPGES-1; endogenous in cells
# Sequence (O14684 whole entry): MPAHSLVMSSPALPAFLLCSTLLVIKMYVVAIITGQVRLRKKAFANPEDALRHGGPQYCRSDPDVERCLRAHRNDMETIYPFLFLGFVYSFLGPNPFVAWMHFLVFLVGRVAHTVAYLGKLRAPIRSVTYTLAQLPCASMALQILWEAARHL
# experimentalProtocol: PGE2 synthase activity in microsomes of IL-1β-stimulated A549 cells
# assayConditions: 15 min pre-incubation at 4°C, 20 μM PGH2, 1 min; read-out: IC50 of PGE2 formation (mPGES-1 activity)
pIC50: −log10 of the molar value.
# maps each entry to its pIC50

Cc1c(O)cc(O)c(C(=O)C(C)C)c1O | < 5.00

### Prompt Quick check: pIC50 of CC(C)=CCC1C(=O)C(C(=O)CC(C)C)=C(O)C(O)(CC=C(C)C)C1=O (centres unmarked) ?
### Response < 5.00

----------
# Tested on: PGE2 formation in LPS-stimulated human whole blood
# experimentalProtocol: PGE2 formation in LPS-stimulated human whole blood
# Assay type: cell-based
# assayConditions: controls: MK-886 30 μM, MD-52 6 μM, indomethacin 50 μM, celecoxib 20 μM; LPS 5 h
experimentalEndpoint: effect on PGE2 formation

CC(C)c1ccc2c(c1)c(SC(C)(C)C)c(CC(C)(C)C(=O)O)n2Cc1ccc(Cl)cc1 [MK-886] | only partially inhibited
Cc1ccc(-c2cc(C(F)(F)F)nn2-c2ccc(S(N)(=O)=O)cc2)cc1 [celecoxib] | effectively reduced
Clc1ccccc1-c1nc2c3ccccc3c3ccccc3c2[nH]1 [MD-52] | only partially inhibited
COc1ccc2c(c1)c(CC(=O)O)c(C)n2C(=O)c1ccc(Cl)cc1 [indomethacin] | effectively reduced
